Test system: Liver microsomes
protocol.notes: Metabolic stability in human liver microsomes assessed as intrinsic clearance per […] of protein
Type: ADME, Microsome
Lab note: compare clearance with 30 µL/min/mg, writing true (1) if less and false (0) if equal or more.

Record excerpt, results attached:
{"columns": ["compound.smiles", "category"],
 "data": [
  ["CC(=O)c1ccc(N2CCN(C(=O)c3cc(S(N)(=O)=O)ccc3N3CCOCC3)CC2)c(F)c1", "false (0)"],
  ["CC(=O)c1ccc(N2CCN(C(=O)c3cc([N+](=O)[O-])ccc3N3CCOCC3)CC2)c(F)c1", "false (0)"],
  ["CC(=O)c1ccc(N2CCN(C(=O)c3cc(S(C)(=O)=O)ccc3N3CCOCC3)CC2)c(F)c1", "true (1)"],
  ["CNS(=O)(=O)c1ccc(N2CCOCC2)c(C(=O)N2CCN(c3ccc(C(C)=O)cc3F)CC2)c1", "false (0)"]
]}

Does this compound meet the criterion clearance < 30 µL/min/mg? `CS(=O)(=O)c1ccc(OCC2CC2)c(C(=O)N2CCN(c3ccc(C#N)cc3F)CC2)c1`
true (1)

Does this compound meet the criterion clearance < 30 µL/min/mg? `CS(=O)(=O)c1ccc(N2CCOCC2)c(C(=O)N2CCN(c3ccc(C(F)(F)F)cc3)CC2)c1`
true (1)

Does this compound meet the criterion clearance < 30 µL/min/mg? `CC(C)Oc1ccc(S(C)(=O)=O)cc1C(=O)N1CCN(c2ccc(C(F)(F)F)cc2)CC1`
true (1)

Does this compound meet the criterion clearance < 30 µL/min/mg? `CC(=O)c1ccc(N2CCN(C(=O)c3cc(C#N)ccc3N3CCOCC3)CC2)c(F)c1`
false (0)

---

Each entry below carries its reported EC50.
tgt: Sodium- and chloride-dependent glycine transporter 2 (Homo sapiens, UniProt Q9Y345)
Sequence (Q9Y345 whole entry): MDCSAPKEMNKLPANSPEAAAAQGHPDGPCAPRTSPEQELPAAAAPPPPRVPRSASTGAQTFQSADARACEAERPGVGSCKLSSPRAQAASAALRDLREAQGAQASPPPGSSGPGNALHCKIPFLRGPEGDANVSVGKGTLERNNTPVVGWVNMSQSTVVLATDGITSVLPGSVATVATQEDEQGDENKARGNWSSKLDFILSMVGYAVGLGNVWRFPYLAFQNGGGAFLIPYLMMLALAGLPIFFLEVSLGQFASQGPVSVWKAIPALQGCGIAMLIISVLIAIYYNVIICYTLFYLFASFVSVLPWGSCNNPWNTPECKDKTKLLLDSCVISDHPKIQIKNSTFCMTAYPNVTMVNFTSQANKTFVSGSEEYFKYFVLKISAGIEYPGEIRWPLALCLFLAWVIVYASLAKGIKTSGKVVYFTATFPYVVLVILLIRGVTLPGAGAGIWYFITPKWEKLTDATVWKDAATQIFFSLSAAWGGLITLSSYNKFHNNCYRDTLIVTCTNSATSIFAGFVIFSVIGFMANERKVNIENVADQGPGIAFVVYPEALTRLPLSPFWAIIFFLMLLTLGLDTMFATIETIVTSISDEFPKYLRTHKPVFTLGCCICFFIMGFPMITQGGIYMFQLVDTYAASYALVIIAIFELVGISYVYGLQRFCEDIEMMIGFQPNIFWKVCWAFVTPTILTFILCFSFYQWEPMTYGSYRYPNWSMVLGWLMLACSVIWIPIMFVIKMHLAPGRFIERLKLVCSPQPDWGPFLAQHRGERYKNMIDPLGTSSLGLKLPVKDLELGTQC
protocol.notes: Inhibition of [3H]glycine uptake at human glycine transporter 2 expressed in CHO cells by scintillation counter
Provide the reading as a plain figure in µM.

Guide cases for EC50, answers given:
{"columns": ["compound.smiles", "value.units", "EC50"],
 "data": [
  ["CC(=O)c1ccc(N2CCN(C(=O)c3cc([N+](=O)[O-])ccc3N3CCOCC3)CC2)c(F)c1", "µM", 4.8],
  ["Cc1ccc(N2CCN(C(=O)c3cc([N+](=O)[O-])ccc3N3CCOCC3)CC2)cc1", "µM", 7.7],
  ["O=C(c1cc([N+](=O)[O-])ccc1N1CCOCC1)N1CCN(c2ccc(C(F)(F)F)cc2F)CC1", "µM", 29],
  ["O=C(c1cc([N+](=O)[O-])ccc1N1CCOCC1)N1CCN(c2ccc(C(F)(F)F)c(Cl)n2)CC1", "µM", 24],
  ["CS(=O)(=O)c1ccc(N2CCN(C(=O)c3cc([N+](=O)[O-])ccc3N3CCOCC3)CC2)cc1", "µM", 2.1],
  ["CC(=O)c1ccc(N2CCN(C(=O)c3cc([N+](=O)[O-])ccc3N)CC2)c(F)c1", "µM", 3.3]
]}

// lookup EC50 for `O=C(c1cc([N+](=O)[O-])ccc1N1CCOCC1)N1CCN(c2cccc(Cl)c2)CC1`
3.1

// lookup EC50 for `COc1ccccc1N1CCN(C(=O)c2cc([N+](=O)[O-])ccc2N2CCOCC2)CC1`
13.4

---

tgt: Sodium- and chloride-dependent glycine transporter 1 (Homo sapiens)
Sequence (P48067 whole entry): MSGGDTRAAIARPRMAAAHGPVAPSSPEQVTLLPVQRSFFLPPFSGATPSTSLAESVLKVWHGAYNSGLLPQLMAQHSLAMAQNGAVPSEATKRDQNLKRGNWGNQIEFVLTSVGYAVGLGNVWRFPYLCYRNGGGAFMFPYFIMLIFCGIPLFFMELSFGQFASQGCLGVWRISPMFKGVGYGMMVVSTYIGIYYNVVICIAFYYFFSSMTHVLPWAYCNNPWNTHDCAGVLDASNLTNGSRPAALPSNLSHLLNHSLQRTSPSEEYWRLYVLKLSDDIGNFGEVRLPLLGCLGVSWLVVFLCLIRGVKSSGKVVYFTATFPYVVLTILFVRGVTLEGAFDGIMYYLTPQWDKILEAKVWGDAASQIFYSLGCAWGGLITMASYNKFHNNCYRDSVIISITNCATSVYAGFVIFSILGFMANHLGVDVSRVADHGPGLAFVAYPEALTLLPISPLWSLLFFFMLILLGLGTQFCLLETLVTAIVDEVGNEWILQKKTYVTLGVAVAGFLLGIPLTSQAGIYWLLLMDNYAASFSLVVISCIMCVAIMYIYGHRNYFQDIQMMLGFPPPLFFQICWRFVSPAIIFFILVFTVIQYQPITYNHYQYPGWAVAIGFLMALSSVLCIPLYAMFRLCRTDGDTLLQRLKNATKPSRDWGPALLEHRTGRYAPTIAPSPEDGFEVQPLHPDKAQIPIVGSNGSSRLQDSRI
protocol.notes: Inhibition of [3H]glycine uptake at human glycine transporter 1 expressed in CHO cells by scintillation counter
Assay type: cell-based
pEC50: −log10 of the molar value.
Is pEC50 at least 7? Then Met. If not, Not met.

Say whether `CC(=O)c1ccc(N2CCN(C(=O)c3cc([N+](=O)[O-])ccc3NC(C)C)CC2)c(F)c1` shows pEC50 of 7 or more.
Met

Say whether `O=C(c1cc([N+](=O)[O-])ccc1N1CCOCC1)N1CCN(c2ccccc2C(F)(F)F)CC1` shows pEC50 of 7 or more.
Not met

Say whether `CC(=O)c1ccc(N2CCN(C(=O)c3cc([N+](=O)[O-])ccc3NC3CCCCC3)CC2)c(F)c1` shows pEC50 of 7 or more.
Met

Say whether `COc1ccccc1N1CCN(C(=O)c2cc([N+](=O)[O-])ccc2N2CCOCC2)CC1` shows pEC50 of 7 or more.
Not met

Say whether `O=C(c1cc([N+](=O)[O-])ccc1N1CCOCC1)N1CCN(c2ccc(Cl)cc2)CC1` shows pEC50 of 7 or more.
Not met

Say whether `CC(=O)c1ccc(N2CCN(C(=O)c3cccc([N+](=O)[O-])c3)CC2)c(F)c1` shows pEC50 of 7 or more.
Not met

Say whether `O=C(c1cc([N+](=O)[O-])ccc1N1CCOCC1)N1CCN(c2ccc(C(F)(F)F)c(Cl)n2)CC1` shows pEC50 of 7 or more.
Met

Say whether `CC(=O)c1ccc(N2CCN(C(=O)c3cc([N+](=O)[O-])ccc3N3CCCCC3)CC2)c(F)c1` shows pEC50 of 7 or more.
Met

Say whether `CC(=O)c1ccc(N2CCN(C(=O)c3cc([N+](=O)[O-])ccc3NCC3CCCCC3)CC2)c(F)c1` shows pEC50 of 7 or more.
Not met

Say whether `Cc1ccc(N2CCN(C(=O)c3cc([N+](=O)[O-])ccc3N3CCOCC3)CC2)cc1` shows pEC50 of 7 or more.
Not met

Say whether `CC(=O)c1ccc(N2CCN(C(=O)c3ccccc3N3CCOCC3)CC2)c(F)c1` shows pEC50 of 7 or more.
Not met

Say whether `COc1cccc(N2CCN(C(=O)c3cc([N+](=O)[O-])ccc3N3CCOCC3)CC2)c1` shows pEC50 of 7 or more.
Not met
